read-out: Thyroid Hormone Responsive (THRSP), THRSP (gene 7069); experiment: LTEA_HepaRG_THRSP: Life Technologies and Expression Analysis (LTEA) Assay for Thyroid Hormone Responsive (THRSP) using HepaRG (AID 2283536); settings: mRNA level, 48 h; actives raise or lower the signal
Calls of active or inactive are those of the source. The calls were made as follows: active = hit-call score of the fitted dose curve at least 0.9, where 1 is the maximum; inactive = score below 0.9.
Hi there, use one of these labels in your reply, thanks! true (1) for active, false (0) for inactive

Kindly provide the recorded test outcome for the following molecule: `CC1=C(C)S(=O)(=O)CCS1(=O)=O`
true (1)

Item: `Oc1ccccc1O`
false (0)

Item: `CC(C)(C)c1ccccc1`
false (0)

Item: `Cc1cc(Cc2ccc(N)c(C)c2)ccc1N`
false (0)

----------
test: ATG_PXRE_CIS: Attagene CIS-FACTORIAL HepG2 Assay for human Pregnane X Receptor Element (PXRE) (AID 2282957); settings: HepG2 Attagene CIS-FACTORIAL PXRE reporter, mRNA; actives raise or lower the signal
Calls of active or inactive are those of the source. Rule for the calls: active = hit-call score of the fitted dose curve at least 0.9, where 1 is the maximum; inactive = score below 0.9.

- molecule: "COC(=O)CCC(=O)OC"
  AC50: "inactive"
- molecule: "CC(=O)O"
  AC50: "inactive"
- molecule: "CCCCCCC(CCCCCCCCCCC(=O)OCC(COC(C)=O)OC(C)=O)OC(C)=O (stereo not drawn)"
  AC50: "50 µM (active)"

----------
read-out: Tumor necrosis factor (Homo sapiens) (UniProt P01375); experiment: BSK_LPS_TNFa: BioMAP Diversity Plus: LPS Assay for Tumour Necrosis Factor alpha (TNFa) Biomarker Activity (AID 2283085); settings: primary human HUVEC with PBMC; actives raise or lower the signal
Sequence (P01375 whole entry, looked up): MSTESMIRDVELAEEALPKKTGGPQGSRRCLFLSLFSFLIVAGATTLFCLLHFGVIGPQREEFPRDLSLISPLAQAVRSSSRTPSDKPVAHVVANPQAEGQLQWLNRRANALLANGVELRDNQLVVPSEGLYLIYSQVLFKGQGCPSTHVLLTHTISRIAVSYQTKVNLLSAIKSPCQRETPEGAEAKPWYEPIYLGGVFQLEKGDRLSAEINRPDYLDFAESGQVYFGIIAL
Calls of active or inactive are those of the source. Rule for the calls: active = hit-call score of the fitted dose curve at least 0.9, where 1 is the maximum; inactive = score below 0.9.
Hi there, use one of these labels in your reply, thanks! active, inactive

Kindly provide the recorded test outcome for the following compound: CC(=O)OC1CC(C)OC(C)O1 (stereo not given)
inactive

Item: `O=C1CCCCC1`
inactive

Item: `CCCCCCCC(=O)OC`
inactive

Item: `CSc1ccc(Oc2ccc(S(N)(=O)=O)cc2CN(C)C)cc1C`
inactive

Item: `OCC(O)CO`
inactive

Item: `NC=O`
inactive

Item: `Cn1cnc2c1c(=O)[nH]c(=O)n2C`
inactive

Item: `CCCCCCCCCC[N+](C)(C)[O-]`
inactive

Item: `CCc1nc(N)nc(N)c1-c1ccc(Cl)cc1`
inactive

Item: `Cc1cn([C@H]2C=C[C@@H](CO)O2)c(=O)[nH]c1=O`
inactive

Item: `CCCCCCC(C=O)=Cc1ccccc1`
active

Item: `Cc1ccc(C(C)(C)C)c(O)c1`
inactive

Item: `CN(C)C(=O)NC1(c2ccccc2)CCN(CCC[C@]2(c3ccc(Cl)c(Cl)c3)CCCN(C(=O)c3ccccc3)C2)CC1`
inactive

Item: `O=C1O[C@H]([C@H](O)CO)C(O)=C1O`
inactive

Item: `CC1=C(C)S(=O)(=O)CCS1(=O)=O`
inactive

Item: `O=C(Oc1ccccc1)c1cccc(C(=O)Oc2ccccc2)c1`
inactive

Item: `CN(C)CCCN(C)CCCN(C)C`
inactive

Item: `S=c1[nH]c2ccccc2s1`
inactive

Item: `CS(=O)(=O)c1ccc([C@@H](C[C@H]2CCC(=O)C2)C(=O)Nc2cnccn2)cc1Cl`
inactive

Item: `CC1(C)C(=O)NC(=O)N1CO`
inactive

----------
test: APR_HepG2_CellCycleArrest_72hr: Apredica 72-hour HepG2 Assay for Cell Cycle Arrest (AID 2282914); details: high-content imaging, actives raise or lower the signal
Calls of active or inactive are those of the source. The calls were made as follows: active = hit-call score of the fitted dose curve at least 0.9, where 1 is the maximum; inactive = score below 0.9.
Hi there, use one of these labels in your reply, thanks! active, inactive

Kindly provide the recorded test outcome for the following compound: `N[C@@H](Cc1c[nH]c2ccccc12)C(=O)O`
inactive

Item: `Oc1ccccc1O`
active

Item: `CC(=O)O[C@]1(C(C)=O)CC[C@H]2[C@@H]3C=C(Cl)C4=CC(=O)[C@@H]5C[C@@H]5[C@]4(C)[C@H]3CC[C@@]21C`
inactive

Item: `COC(=O)[C@H]1[C@H]2C[C@@H]3c4[nH]c5cc(OC)ccc5c4CCN3C[C@H]2C[C@@H](OC(=O)c2cc(OC)c(OC)c(OC)c2)[C@@H]1OC`
inactive

Item: `CSc1ccc(Oc2ccc(S(N)(=O)=O)cc2CN(C)C)cc1C`
inactive

Source of measurements: PubChem BioAssay (EPA / NIEHS)
